- Tested on: A549/ATCC NSCLC
- assay: NCI-60 one-dose screen, 48 h
- test-settings: 10 µM unless noted
The panel holds about 83,000 compounds, 20% with a hit somewhere; the sample as a whole holds those more often. Activity calls are given as the source filed them. How the source made its calls: active means growth percent below 10; inactive means the rest.
Labels: active, inactive

- molecule: "C=C(C)[C@@H]1CC[C@@]2(C(=O)O)CC[C@]3(C)C(CCC4[C@@]5(C)CCC(OS(=O)(=O)c6ccccc6)C(C)(C)C5CC[C@]43C)C12 (some centres undefined)"
  label: "inactive"
- molecule: "CN(C)c1ccc(/C=C2\\C=C(c3ccccc3)N(CCc3ccccc3)C2=O)cc1"
  label: "inactive"
- molecule: "CCCNCC(=O)Nc1ccc(C(=O)OC(C)(C)CC)cc1"
  label: "inactive"
- molecule: "C/C(Cc1ccc(Cl)cc1)=C(/c1ccc(Cl)cc1)c1ccc(OCCN(C)C)cc1"
  label: "inactive"
- molecule: "CC(C)n1nc(C#Cc2cccc(NC(=O)c3cccc(C(F)(F)F)c3)c2)c2c(N)ncnc21"
  label: "active"
- molecule: "C=C1C(=O)O[C@H]2[C@H]1CC/C(COC(=O)/C=C\\C(=O)NCc1ccc(Cn3c(=O)sn(CCCI)c3=O)cc1)=C\\CC[C@@]1(C)O[C@@H]21"
  label: "active"
- molecule: "COc1ccc2c(c1)/C(=C\\c1sc(=S)[nH]c1O)C(C(=O)O)=N2"
  label: "inactive"
- molecule: "N#Cc1c(N)nc2c(nnn2-c2cccc(Br)c2)c1N"
  label: "inactive"
- molecule: "C=C1C(=O)O[C@H]2[C@H]1CC/C(COC(=O)/C=C\\C(=O)NCc1ccc(Cn3c(=O)sn(-c4ccc(Cl)cc4)c3=O)cc1)=C\\CC[C@@]1(C)O[C@@H]21"
  label: "active"
- molecule: "O=C(O)C1C[C@](O)(c2ccc(F)cc2)[C@@H](c2ccc(F)cc2)O1 (some centres undefined)"
  label: "inactive"
- molecule: "Cc1ccc(/C=C(\\C#N)n2nnc3cc(Cl)c(Cl)cc32)cc1"
  label: "inactive"
- molecule: "CC12CC(C#N)CCC1O2 (centres undefined)"
  label: "inactive"
- molecule: "COc1ccc(/C=N/NC(=O)Cn2c(-c3ccc(S(C)(=O)=O)cc3)nc3cc(Cl)ccc32)cc1"
  label: "inactive"
- molecule: "CC(=O)Nc1ccc(C(=O)/C=C/c2ccccc2)cc1"
  label: "inactive"
- molecule: "COc1ccc(/C(C)=C(\\c2ccc(Cl)cc2)c2ccc(OCCN3CCCCCC3)cc2)cc1F"
  label: "inactive"
- molecule: "COc1cc2c(cc1OC)-c1ccc3cc4c(cc3c1N(CCCN1CCCCC1)C2)OCO4"
  label: "inactive"
- molecule: "O=C(CC12CC3CC(CC(C3)C1)C2)NCCOCCOCCOCCNC(=O)c1cc2c(o1)C(=O)c1ccccc1C2=O"
  label: "active"
- molecule: "CCNCCNc1cc(-c2cccc(C(F)(F)F)c2)c(C#N)c2nc3ccccc3n12"
  label: "active"
- molecule: "O=C(CC12CC3CC(CC(C3)C1)C2)NCCOCCOCCNC(=O)c1cc2c(o1)C(=O)c1ccccc1C2=O"
  label: "active"
